Target: T1, human CD73 expressed on the cell surface (human, UniProt P21589 27-549)
T1 sequence: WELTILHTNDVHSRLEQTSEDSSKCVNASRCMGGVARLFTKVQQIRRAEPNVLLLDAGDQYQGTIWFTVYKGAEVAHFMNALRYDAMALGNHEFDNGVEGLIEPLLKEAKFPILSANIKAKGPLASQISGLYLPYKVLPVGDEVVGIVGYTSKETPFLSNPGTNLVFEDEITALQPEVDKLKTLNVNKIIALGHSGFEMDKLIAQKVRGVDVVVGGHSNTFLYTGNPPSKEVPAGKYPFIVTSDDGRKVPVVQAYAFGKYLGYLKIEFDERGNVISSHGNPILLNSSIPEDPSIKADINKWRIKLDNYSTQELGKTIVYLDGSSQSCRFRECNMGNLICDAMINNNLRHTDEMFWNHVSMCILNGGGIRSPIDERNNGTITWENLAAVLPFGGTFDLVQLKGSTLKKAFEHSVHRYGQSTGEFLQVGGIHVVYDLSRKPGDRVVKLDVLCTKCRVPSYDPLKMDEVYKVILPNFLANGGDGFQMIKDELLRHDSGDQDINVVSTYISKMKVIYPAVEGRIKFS
Assay: cell-based or functional assay
observable: CD73 enzymatic activity assay IC50 (Calu-6 cells, CellTiter-Glo)

1. ADI-34104 (antibody, human IgG4 S228P, kappa, F234A L235A, V domains shown, Parental antibody) VH: QVQLQESGPGLVKPSETLSLTCAVSGYSISSGYYWGWIRQPPGKGLEWIGSIYHSGSTYYNPSLKSRVTISVDTSKNQFSLKLSSVTAADTAVYYCARASIYTPPPEYFQHWGQGTLVTVSS VL: DIQMTQSPSTLSASVGDRVTITCRASQSISSWLAWYQQKPGKAPKLLIYDASSLESGVPSRFSGSGSGTEFTLTISSLQPDDFATYYCQQSRIYSTFGGGTKVEIKR :: 0.142 µg/mL
2. ADI-34095 (antibody, human IgG4 S228P, kappa, F234A L235A, V domains shown) VH: QVQLVESGGGVVQPGRSLRLSCAASGFTFSSYGMHWVRQAPGKGLEWVAVISYEGSNKYYADSVKGRFTISRDNSKNTLYLQMNSLRAEDTAVYYCARGGARYPIAFDIWGQGTMVTVSS VL: DIQLTQSPSSVSASVGDRVTITCRASQDISSWLAWYQQKPGKAPKLLIYAASSLQSGVPSRFSGSGSGTDFTLTISSLQPEDFATYYCQQANDFPITFGGGTKVEIKR :: 0.279 µg/mL
3. ADI-34074 (antibody, human IgG4 S228P, kappa, F234A L235A, V domains shown, Parental antibody; also called AD-34074) VH: EVQLVESGGGLVQPGRSLRLSCAASGFTFDDYAMHWVRQAPGKGLEWVSGISWSSGSIGYADSVKGRFTISRDNAKNSLYLQMNSLRAEDTAVYYCAKGKYLPTGSVDYWGQGTLVTVSS VL: EIVLTQSPGTLSLSPGERATLSCRASQSVSSSYLAWYQQKPGQAPRLLIYGASSRATGIPDRFSGSGSGTDFTLTISRLEPEDFAVYYCQQYYDYPPITFGGGTKVEIKR :: 0.476 µg/mL

Source listed as patent US20230312741A1.
